// data source = ChEMBL document CHEMBL4513216

Test system: Plasmodium falciparum
assayProtocol: Screen against P. falciparum Asexual Blood Stage (ABS), at 5uM
Type: functional, Dd2
conditionDescription: tested at 5 uM
Out of some 65,000 compounds screened, about 2,100 (3.2%) showed an effect of 50% or more. The median lay at about -52%. Only a selection was taken, and strong results are over-represented in it overall.
parameterMeasured: INHIBITION (%)
Numbers only, in %.

Look at each compound and report its INHIBITION.
1. CCn1cc(CNC(=O)CC(C)C)cn1
2. O=C(O)CCC(=O)N1CCN(CC2CC2)c2ncccc2C1
3. O=C(C1CCCC1)N1CCCC(c2cccc(-n3ccnc3)n2)C1 (centres undefined)
4. CC(=O)N1CCN(CCNS(=O)(=O)c2cccc(F)c2)CC1
5. Cc1nc(CN2CCCn3cnc(COC(C)C)c3C2)cs1
6. CN(Cc1cccnc1)Cc1cncc2c1CCN(c1ccccn1)C2
7. CC(=O)N1CCN(CCNS(=O)(=O)c2cc(F)cc(F)c2)CC1

Solution:
[-153, -23.3, -46.4, -72.6, -54.9, -26.1, -113]

Look at each compound and report its INHIBITION.
1. Cc1nc(NC(=O)NCc2cccnc2NCCN(C)C)sc1C
2. CC1CCN(CCCNS(=O)(=O)c2cccc(F)c2)CC1
3. CC(C)c1cccc(S(=O)(=O)NCCCN2CCC(O)CC2)c1
4. CN(CC(F)(F)F)C(=O)CNC(=O)N1CCCC(N(C)C)C1 (centres undefined)
5. CC(C)c1nnc(NC(=O)NCc2cccnc2NCCN(C)C)s1
6. Oc1cc(-c2ccsc2)nc(C2CCN(Cc3cccnc3)CC2)n1
7. O=C(c1ccsc1)N1C[C@H]2CCC[C@@]2(COCc2cccnc2)C1

Solution:
1: -8.39; 2: 54.9; 3: 34.2; 4: -126; 5: -89.9; 6: -96.9; 7: -29.9

* * *

System: Plasmodium falciparum
assayProtocol: Screen against P. falciparum Asexual Blood Stage (ABS), at 5uM
Assay type: functional, Dd2
conditionDescription: tested at 5 uM
In all, about 65,000 compounds went through this assay and about 2,100 (3.2%) showed an effect of 50% or more. The median lay at about -52%. What follows is part of a selection rich in strong results, with near analogues and random picks from the rest.
I'd be grateful if you could share measured INHIBITION for these entries.
Answers are plain numbers, in %.

Cc1nn(C)c(N(C)C)c1CNC1CCc2c(F)cccc21 (stereo not drawn)
-24.9
CCc1noc(C2CCCCN2C(=O)c2cc(C)oc2C)n1 (stereo not drawn)
-14.9
O=C(Nc1ccncc1)NC1CCN(c2ccccc2OC(F)F)C1 (stereo not drawn)
64.4
CC(=O)Nc1ccc(OCc2noc(C(=O)N3CCCCCC3)n2)cc1
-83.9
Cc1c(CN2CC[C@@H](N3CCC(O)CC3)[C@H](O)C2)[nH]c2ccc(F)cc12
-21.9
O=C(Nc1ccccn1)NC1CCN(c2ccccc2OC(F)F)C1 (stereo not drawn)
8.94

Look at each compound and report its INHIBITION.
1. Cc1c(CN2CC[C@@H](N3CCC(O)CC3)[C@H](O)C2)[nH]c2ccc(Cl)cc12
2. O=C1CC(c2ccncc2)C2(CCN(CCc3ccccc3)CC2)N1 (stereo not drawn)
3. O=C(Nc1cccnc1)NC1CCN(c2ccccc2OC(F)F)C1 (stereo not drawn)
4. Cc1c(Cl)cccc1S(=O)(=O)N1CCC(S(=O)(=O)c2nncn2C)CC1
5. CCS(=O)(=O)Nc1ccc2oc(C)c(C(=O)OC)c2c1
6. N#Cc1ccc(N2CCCC3(CCN(c4cccnc4)CC3)C2)cc1

Solution:
1: 54.6; 2: -55.3; 3: 16; 4: -68.7; 5: -54.7; 6: -71.3

Look at each compound and report its INHIBITION.
1. CCC[C@@H]1CN(C(=O)c2ccccc2C(C)=O)C[C@H]1N(C)C
2. Cc1nnc2n1CCN(C(C(=O)NC1CC1)c1ccc(F)cc1)C2 (stereo not drawn)
3. CCC[C@@H]1CN(C(=O)c2cc3ccccc3cc2O)C[C@H]1N(C)C
4. c1ccc(CCNC2CCc3ncnn3C2)nc1 (stereo not drawn)
5. O=C(COc1ccc(F)cc1)N1CCO[C@H]2[C@@H](OCC3CC3)CC[C@@H]21
6. CCC[C@@H]1CN(C(=O)c2cc(-c3cccs3)n(C)n2)C[C@H]1N(C)C
7. CN(C)c1ncc(CNC(=O)Nc2ccc(C(F)(F)F)cc2)n1C

Solution:
[-112, -127, 52.8, -209, -24, -63, 68.3]

Look at each compound and report its INHIBITION.
1. Cc1ccc(OCC(O)CN2CCc3c(ncn3C3CC3)C2)cc1 (stereo not drawn)
2. CCC(=O)N1CCC2(CC1)COCCN2Cc1ccc(F)cc1
3. Cc1cc(NC(=O)CN2CCCC2c2noc(C)n2)n(C(C)(C)C)n1 (stereo not drawn)
4. CCC[C@@H]1CN(C(=O)c2ccccc2-c2ncc[nH]2)C[C@H]1N(C)C

Solution:
[-28.3, -31.7, -108, -80.9]

* * *

Test system: Plasmodium falciparum
assayProtocol: Screen against P. falciparum Asexual Blood Stage (ABS), at 5uM
Assay type: functional, Dd2
conditionDescription: tested at 5 uM
The whole screen tested about 65,000 compounds, of which about 2,100 (3.2%) showed an effect of 50% or more. The median lay at about -52%. This excerpt belongs to a sample that is enriched for strong results.
Classification by INHIBITION follows these ranges: bottom = under -50%, middle = from -50% up to 30%, top = 30% and over

Answered examples (3):
COc1ccccc1-n1nc(CC(C)C)nc1CSc1nnc(N)s1
middle
CCc1ccc(CN2Cc3nccn3CC(CN3CCOCC3)C2)o1 (centres undefined)
middle
CC1CCCN(CCNC(=O)c2scnc2Cl)C1 (centres undefined)
middle

Problem: Could you place Cc1cccc(C(CNC(=O)NCc2cc[nH]n2)N2CCOCC2)c1 (centres undefined) in its proper category? Many thanks.
Solution: top

Problem: Same thing, different compound: Cc1ccc(-c2c(C(=O)NC3CCN(C)CC3)csc2C)cc1
Solution: top

Problem: Same thing, different compound: CCc1ccccc1OCCN1C[C@@H](NS(C)(=O)=O)[C@H](C(C)C)C1
Solution: top

Problem: Same thing, different compound: CC(C)[C@@H]1CN(CCOc2ccc(Cl)cc2)C[C@H]1NS(C)(=O)=O
Solution: top

Problem: Same thing, different compound: CCN1C(=O)CCCC12CCCN(C(=O)c1ccncc1F)C2 (centres undefined)
Solution: middle

Problem: Same thing, different compound: CC(C)NC(=O)N1CCc2onc(C(=O)NCCN(C)C)c2C1
Solution: middle

* * *

Test system: Plasmodium falciparum
assayProtocol: Screen against P. falciparum Asexual Blood Stage (ABS), at 5uM
Assay type: functional, Dd2
conditionDescription: tested at 5 uM
Hit rate of the full screen: of about 65,000 compounds, about 2,100 (3.2%) showed an effect of 50% or more. The median lay at about -52%. The entries come from a sample that favours strong results as a whole.
parameterMeasured: INHIBITION (%)
Numbers only, in %.

Look at each compound and report its INHIBITION.
1. Cc1nc(C)n(CC2CCCN2Cc2cn3ccsc3n2)n1 (centres undefined)
2. O=C1CCCC2=Nc3nonc3NC(c3cc(Cl)ccc3F)C12 (centres undefined)
3. CN1CCc2nc(C3CCCN(C(=O)CC(C)(C)C)C3)ncc2C1 (centres undefined)
4. N#Cc1cn(C2CC2)c(=O)n(CC(O)c2ccccc2F)c1=O (centres undefined)
5. COc1ccc(C(C)NC(=O)C2CCN(S(C)(=O)=O)CC2)cc1C (centres undefined)
6. CCCS(=O)(=O)NCc1nc(C)cc(N2CCCC2)n1
7. Cc1cc(-c2nn(C)c(Cl)c2CN2Cc3ccccc3C(O)C2)no1 (centres undefined)

Solution:
-20.5
-54
-102
-128
-118
-76.8
53.8

* * *

Test system: Plasmodium falciparum
assayProtocol: Screen against P. falciparum Asexual Blood Stage (ABS), at 5uM
Format: functional, Dd2
conditionDescription: tested at 5 uM
About 2,100 (3.2%) of roughly 65,000 compounds showed an effect of 50% or more. The median lay at about -52%. The entries come from a sample that favours strong results as a whole.
parameterMeasured: INHIBITION (%)
Numbers only, in %.

Some solved cases for reference:
CCc1c(C)sc2ncnc(N3CCN(C4CCOCC4)CC3)c12
33.7
CN1CCN(c2nccc(-c3cncnc3C3CCCCC3)n2)CC1
62.3
CN1CCN(c2ncc(-c3cnccn3)c([C@H]3CCCO3)n2)CC1
-10.1
CC(NC(=O)CN1CCN(c2ccncc2Cl)CC1)c1ccco1 (stereo unspecified)
-106
CCc1nc(CC(=O)N2CCn3c(nnc3C(F)(F)F)C2)cs1
-206
CCc1nc(CC(=O)N2CCn3c(CC)nnc3C2)cs1
52

Look at each compound and report its INHIBITION.
1. Cc1nc(CC(=O)N2CCn3c(nnc3C(C)C)C2)cs1
2. CCc1c(C)sc2ncnc(N3C[C@H](O)[C@@H](N4CCCC4)C3)c12
3. CCc1nc(CC(=O)N2CCn3c(nnc3C(C)C)C2)cs1

Solution:
1: 51.5; 2: 62; 3: -56.3

Look at each compound and report its INHIBITION.
1. CCc1c(C)sc2ncnc(N3CC[C@@H](N4CCOCC4)[C@H](O)C3)c12
2. COCCN(C)C[C@H]1C[C@H](CO)CN(C(=O)c2ccc(=O)n(C)c2)C1

Solution:
1: -2.01; 2: -100
